Tested on: Chlorella sp. ATCC 7516
Assay: Algal efficacy testing of dry paint films (modified ASTM 5589, 6-well plates)
Format: cell-based
Settings: total biocide conc in paint chosen as minimum inhibitory concentration (pass level 75% inhibition), or maximum tested where pass not reached, 4 weeks
Entries annotated with measured Total conc

| Smiles Input | U | Total conc |
| --- | --- | --- |
| CC(C)c1ccc(NC(=O)N(C)C)cc1 | ppm | 1000 |
| O=c1[nH]c2c(c(=O)n1C1CCCCC1)CCC2 | ppm | 5000 |
| CN(C)C(=O)Nc1ccc(Cl)c(Cl)c1 | ppm | 500 |
| Cc1ccc(NC(=O)N(C)C)cc1Cl | ppm | 1000 |

Every entry's value here was drawn from patent US20160205934A1.
